- test-system: T1, cJun bZIP (human, UniProt P05412 252-308, limits assumed)
- T1 construct: Purified from a His-SUMO fusion with the tag cleaved off; also called c-Jun bZIP domain; 60 amino acid c-Jun bZIP construct
- T1 chain: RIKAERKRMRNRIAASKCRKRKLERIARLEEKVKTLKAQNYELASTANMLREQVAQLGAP
- assay-procedure: CD thermal denaturation, peptide 5 µM and c-Jun 5 µM
Bridge positions count the residues as written; N and C are the ends. Ends that are not written are not given here.
measurement-label: Tm (° C.) of peptide-c-Jun heterodimer

protein="Ac-EAEELVVEEDVLEEEIEQLEERNYALRKEIEDL-NH2 (Synthetic, NΔ20 CΔ10) [HingeW variant peptide 25]" endpoint_value=44.8
protein="Ac-EAEELVVEEDVLEEEIEQLEERNYALRKEIEDLQ-NH2 (lactam 28-32 (inferred), Synthetic, NΔ20 CΔ9; also called cyclised form of 28/29) [HingeW variant peptide 29]" endpoint_value=57.2
protein="Ac-LVVEEDVLEEEIEQLEERNYALRKEIEDLQKQLEDL-NH2 (Synthetic, NΔ24 CΔ3; also called linear form of 9/10) [HingeW variant peptide 9]" endpoint_value=62.1
protein="Ac-EAEELVVEEDVLEEEIEQLEERNYALRKEIEDLQ-NH2 (Synthetic, NΔ20 CΔ9; also called linear form of 28/29) [HingeW variant peptide 28]" endpoint_value=53.8
protein="EDVLEEEIEQLEERNYALRKEIEDLQKQLEKLGAP-NH2 (NΔ28; also called LZ-only portion of the HingeW molecule) [Peptide 6]" endpoint_value=55.1
protein="Ac-LVVEEDVLEEEIEQLEERNYALRKEIEDLQKQLEKL-NH2 (Synthetic, NΔ24 CΔ3) [Peptide 5]" endpoint_value=62.8
